Source listed as the supplement of paper PMC9112550.

System: Escherichia coli TOP10
Experiment: shrunken log2 fold change of peptide-encoding DNA abundance (4.5 h post-induction vs induction); higher = less antimicrobial activity (less host growth inhibition)
Conditions: time post-induction: 4.5 h; library: site-saturation at positions 5, 18, 19, 20
readout_name: shrunken log2 fold change

In: Identify measured shrunken log2 fold change associated with RRIRIRPPRLPRPRPRPWKFPRP
Out: -0.158

In: Identify measured shrunken log2 fold change associated with RRIRWRPPRLPRPRPRPMNGPRP
Out: -0.131

In: Identify measured shrunken log2 fold change associated with RRIRFRPPRLPRPRPRPVRLPRP
Out: 0.0919

In: Identify measured shrunken log2 fold change associated with RRIRSRPPRLPRPRPRPTNSPRP
Out: -0.24

In: Identify measured shrunken log2 fold change associated with RRIRHRPPRLPRPRPRPEKNPRP
Out: -0.0893

----------
System: Escherichia coli TOP10
Assay: shrunken log2 fold change of peptide-encoding DNA abundance (4.5 h post-induction vs induction); higher = less antimicrobial activity (less host growth inhibition)
Conditions: time post-induction: 4.5 h; library: site-saturation at positions 5, 18, 19, 20
readout_name: shrunken log2 fold change
Respond numerically, and do not add a unit to the figure.

Study these solved cases before continuing.
{"biopolymer_sequence": "RRIRSRPPRLPRPRPRPHKEPRP", "shrunken log2 fold change": -0.00927}
{"biopolymer_sequence": "RRIRTRPPRLPRPRPRPTKTPRP", "shrunken log2 fold change": 0.0558}
{"biopolymer_sequence": "RRIRGRPPRLPRPRPRPMKNPRP", "shrunken log2 fold change": 0.68}

In: Identify measured shrunken log2 fold change associated with RRIRRRPPRLPRPRPRPSFRPRP
Out: -0.0185

In: Identify measured shrunken log2 fold change associated with RRIRFRPPRLPRPRPRPMELPRP
Out: 0.112

In: Identify measured shrunken log2 fold change associated with RRIRMRPPRLPRPRPRPAAMPRP
Out: 0.915

In: Identify measured shrunken log2 fold change associated with RRIRIRPPRLPRPRPRPDPRPRP
Out: 0.132

----------
Test system: Escherichia coli TOP10
Experiment: shrunken log2 fold change of peptide-encoding DNA abundance (4.5 h post-induction vs induction); higher = less antimicrobial activity (less host growth inhibition)
Details: time post-induction: 4.5 h; library: site-saturation at positions 5, 18, 19, 20
Tick y if shrunken log2 fold change is -0.1 or greater. Tick n if shrunken log2 fold change is less than -0.1.

Record excerpt, results attached:
{"biopolymer_sequence": "RRIRLRPPRLPRPRPRPCQCPRP", "class_label": "n"}
{"biopolymer_sequence": "RRIRERPPRLPRPRPRPHPWPRP", "class_label": "n"}
{"biopolymer_sequence": "RRIRTRPPRLPRPRPRPALHPRP", "class_label": "n"}

In: Is it the case that RRIRLRPPRLPRPRPRPWGYPRP has shrunken log2 fold change reaching or exceeding -0.1?
Out: n

In: Is it the case that RRIRSRPPRLPRPRPRPHHQPRP has shrunken log2 fold change reaching or exceeding -0.1?
Out: n

In: Is it the case that RRIRFRPPRLPRPRPRPIQWPRP has shrunken log2 fold change reaching or exceeding -0.1?
Out: y

In: Is it the case that RRIRYRPPRLPRPRPRPWIMPRP has shrunken log2 fold change reaching or exceeding -0.1?
Out: n

In: Is it the case that RRIRHRPPRLPRPRPRPVYTPRP has shrunken log2 fold change reaching or exceeding -0.1?
Out: n

In: Is it the case that RRIRCRPPRLPRPRPRPATHPRP has shrunken log2 fold change reaching or exceeding -0.1?
Out: y

In: Is it the case that RRIRQRPPRLPRPRPRPGMKPRP has shrunken log2 fold change reaching or exceeding -0.1?
Out: y

In: Is it the case that RRIRTRPPRLPRPRPRPTDMPRP has shrunken log2 fold change reaching or exceeding -0.1?
Out: y

----------
Tested on: Escherichia coli TOP10
Experiment: shrunken log2 fold change of peptide-encoding DNA abundance (4.5 h post-induction vs induction); higher = less antimicrobial activity (less host growth inhibition)
Conditions: time post-induction: 4.5 h; library: site-saturation at positions 5, 18, 19, 20
Measured shrunken log2 fold change, listed per entry.
Respond numerically, and do not add a unit to the figure.

{"biopolymer_sequence": "RRIRRRPPRLPRPRPRPFYGPRP", "target_under_test": "Escherichia coli TOP10", "shrunken log2 fold change": -0.0114}
{"biopolymer_sequence": "RRIRERPPRLPRPRPRPTLYPRP", "target_under_test": "Escherichia coli TOP10", "shrunken log2 fold change": -0.184}

// below: shrunken log2 fold change requested for another sequence
In: Identify measured shrunken log2 fold change associated with RRIRHRPPRLPRPRPRPSSKPRP
Out: -0.0453

----------
Measured shrunken log2 fold change, listed per entry.
Tested on: Escherichia coli TOP10
Assay: shrunken log2 fold change of peptide-encoding DNA abundance (4.5 h post-induction vs induction); higher = less antimicrobial activity (less host growth inhibition)
Conditions: time post-induction: 4.5 h; library: site-saturation at positions 5, 18, 19, 20
Respond numerically, and do not add a unit to the figure.

{"biopolymer_sequence": "RRIRSRPPRLPRPRPRPFHDPRP", "target_under_test": "Escherichia coli TOP10", "recorded_number": -0.204}
{"biopolymer_sequence": "RRIRWRPPRLPRPRPRPKHNPRP", "target_under_test": "Escherichia coli TOP10", "recorded_number": -0.152}
{"biopolymer_sequence": "RRIRDRPPRLPRPRPRPMRNPRP", "target_under_test": "Escherichia coli TOP10", "recorded_number": 0.416}

In: Identify measured shrunken log2 fold change associated with RRIRARPPRLPRPRPRPDMLPRP
Out: -0.0619

In: Identify measured shrunken log2 fold change associated with RRIRLRPPRLPRPRPRPDPDPRP
Out: -0.0677

In: Identify measured shrunken log2 fold change associated with RRIRLRPPRLPRPRPRPSQDPRP
Out: -0.282

In: Identify measured shrunken log2 fold change associated with RRIRIRPPRLPRPRPRPFSTPRP
Out: -0.38

In: Identify measured shrunken log2 fold change associated with RRIRHRPPRLPRPRPRPKREPRP
Out: -0.0483

In: Identify measured shrunken log2 fold change associated with RRIRTRPPRLPRPRPRPSFLPRP
Out: -0.586

In: Identify measured shrunken log2 fold change associated with RRIRGRPPRLPRPRPRPKMSPRP
Out: 0.344

In: Identify measured shrunken log2 fold change associated with RRIRLRPPRLPRPRPRPCQGPRP
Out: 0.00157

In: Identify measured shrunken log2 fold change associated with RRIRDRPPRLPRPRPRPCMWPRP
Out: 0.569

In: Identify measured shrunken log2 fold change associated with RRIRCRPPRLPRPRPRPNVTPRP
Out: 0.632

In: Identify measured shrunken log2 fold change associated with RRIRQRPPRLPRPRPRPVTRPRP
Out: 0.0193

In: Identify measured shrunken log2 fold change associated with RRIRVRPPRLPRPRPRPIQDPRP
Out: -0.134

----------
Measured shrunken log2 fold change, listed per entry.
Test system: Escherichia coli TOP10
Assay: shrunken log2 fold change of peptide-encoding DNA abundance (4.5 h post-induction vs induction); higher = less antimicrobial activity (less host growth inhibition)
Details: time post-induction: 4.5 h; library: site-saturation at positions 5, 18, 19, 20

{"biopolymer_sequence": "RRIRKRPPRLPRPRPRPQGYPRP", "shrunken log2 fold change": -0.0839}
{"biopolymer_sequence": "RRIRNRPPRLPRPRPRPPGRPRP", "shrunken log2 fold change": 0.769}
{"biopolymer_sequence": "RRIRNRPPRLPRPRPRPKKGPRP", "shrunken log2 fold change": 0.0558}

// below: shrunken log2 fold change requested for another sequence
In: Specify shrunken log2 fold change for RRIRCRPPRLPRPRPRPMAQPRP , system Escherichia coli TOP10.
Out: -0.0404

----------
Test system: Escherichia coli TOP10;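 also: peptides expressed intracellularly from a pBAD plasmid library in pooled LB shake-flask culture, induced with 0.3% L-arabinose, DNA abundance read by NGS, three biological replicates, DESeq2 with apeglm shrinkage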
Experiment: shrunken log2 fold change of peptide-encoding DNA abundance (4.5 h post-induction vs induction); higher = less antimicrobial activity (less host growth inhibition)
Conditions: time post-induction: 4.5 h; library: site-saturation at positions 5, 18, 19, 20
In this scheme, each record receives a class according to its shrunken log2 fold change; the ranges are band A = under -0.02, band B = from -0.02 up to 0.2, band C = 0.2 and over

{"biopolymer_sequence": "RRIRSRPPRLPRPRPRPRENPRP", "class_label": "band C"}

In: Returns: class label. Input: RRIRPRPPRLPRPRPRPPNPPRP
Out: band C

In: Returns: class label. Input: RRIRYRPPRLPRPRPRPMAYPRP
Out: band B

In: Returns: class label. Input: RRIRKRPPRLPRPRPRPMTPPRP
Out: band C

In: Returns: class label. Input: RRIRNRPPRLPRPRPRPEHTPRP
Out: band B

In: Returns: class label. Input: RRIRYRPPRLPRPRPRPLIEPRP
Out: band A

In: Returns: class label. Input: RRIRDRPPRLPRPRPRPAFCPRP
Out: band B

In: Returns: class label. Input: RRIRRRPPRLPRPRPRPLMYPRP
Out: band B

In: Returns: class label. Input: RRIRPRPPRLPRPRPRPNIEPRP
Out: band A

In: Returns: class label. Input: RRIRDRPPRLPRPRPRPGVVPRP
Out: band C

In: Returns: class label. Input: RRIRPRPPRLPRPRPRPSRKPRP
Out: band B

In: Returns: class label. Input: RRIRIRPPRLPRPRPRPRERPRP
Out: band C

In: Returns: class label. Input: RRIRQRPPRLPRPRPRPPHRPRP
Out: band C
